# assay_summary: qHTS assay to test for compound auto fluorescence at 590 nm (red) in HEK293 cells (AID 720679); further: on the % scale 0 is the no-effect control and ±100 the full control effect
# test_conditions: red autofluorescence 540/590 nm; series mostly up to 91.3 µM
Active and inactive are the calls of the source. The call rests on the fitted dose curve; in most records, active means well fitted curve in the direction sought with a large enough effect in the repeat runs; inconclusive means weak or mixed curves; inactive means flat fitted curve, though single readings scatter.
property_name: fluorescence, % of fluorescent control

compound	fluorescence, % of fluorescent control
CCS(=O)(=O)CCn1c([N+](=O)[O-])cnc1C	0.0006% [at 18.6 µM] (inactive)
O=c1[nH]c(=O)c2ccccc2o1	inactive
CC1(N)CCC(C(C)(C)N)CC1 (stereo not drawn)	inactive
C=C[Si](C)(C)O[Si](C)(C)C=C	inactive
Cc1ccccc1C	inactive
NS(=O)(=O)c1ccccc1OC(F)(F)F	inactive
C1CCN2C[C@@H]3C[C@@H](CN4CCCC[C@@H]34)[C@H]2C1	-0.036% [at 18.6 µM] (inactive)

Below: the item to evaluate.
Enquiry: Bench note: what fluorescence, % of fluorescent control did NC(Cc1c[nH]c2ccccc12)C(=O)O (stereo not drawn) show?
Return: inactive

---

# assay_summary: qHTS assay to identify small molecule agonists of the hypoxia (HIF-1) signaling pathway - cell viability counter screen (AID 1224844); further: on the % scale 0 is the no-effect control and ±100 the full control effect; nearly all actives have a fitted effect of over 50% in size
# test_conditions: HRE-bla ME-180 viability, CellTiter-Glo luminescence, 17 h; series mostly up to 76.8 µM
Results filed as inconclusive are left out. Activity calls are given as the source filed them. Calls come from the whole dose curve.
property_name: activity change, negative = cytotoxicity

Field: example entries. Status: answers known.
molecule	result
CCOC(=O)CCCCCCCCC(=O)OCC	inactive
C=CCOc1cc(Cl)ccc1C(=O)NCCN(CC)CC	inactive
CN(C)CCOCCN(C)CCO	inactive
CCCCCCCCCCC	inactive
Cc1c(C(C)C)c(=O)n(-c2ccccc2)n1C	inactive
C1=CCC(c2ccccc2)CC1 (stereo not drawn)	inactive
OC(CCN1CCCCC1)(c1ccccc1)c1ccccc1	inactive
Oc1ccccc1Cc1ccccc1O	inactive
CCCCCCCCCCCCC	inactive
C=CCOc1c(Br)cc(C(C)(C)c2cc(Br)c(OCC=C)c(Br)c2)cc1Br	inactive

Enquiry: Bench note: what activity change, negative = cytotoxicity did `NC(=O)C1(N2CCCCC2)CCN(CCCC(=O)c2ccc(F)cc2)CC1` show?
Return: inactive

Enquiry: Bench note: what activity change, negative = cytotoxicity did `NS(=O)(=O)c1ccccc1OC(F)(F)F` show?
Return: inactive

Enquiry: Bench note: what activity change, negative = cytotoxicity did `C1CCN2C[C@@H]3C[C@@H](CN4CCCC[C@@H]34)[C@H]2C1` show?
Return: inactive

Enquiry: Bench note: what activity change, negative = cytotoxicity did CCCCC(CC)COC(=O)c1ccccc1 (stereo not drawn) show?
Return: inactive

Enquiry: Bench note: what activity change, negative = cytotoxicity did `Cc1nc2n(c(=O)c1CCN1CCC(C(=O)c3ccc(F)cc3)CC1)CCS2` show?
Return: inactive

Enquiry: Bench note: what activity change, negative = cytotoxicity did C[N+](C)(C)CC(O)CCl (stereo not drawn) show?
Return: inactive

Enquiry: Bench note: what activity change, negative = cytotoxicity did `C/C=C(\C)C(=O)OCC/C=C\CC` show?
Return: inactive

Enquiry: Bench note: what activity change, negative = cytotoxicity did CC(=O)N(CC(O)CO)c1c(I)c(C(=O)NCC(O)CO)c(I)c(C(=O)NCC(O)CO)c1I (stereo not drawn) show?
Return: inactive

Enquiry: Bench note: what activity change, negative = cytotoxicity did `Cc1ccccc1N1CCN(CCc2nnc3n2CCCC3)CC1` show?
Return: inactive

Enquiry: Bench note: what activity change, negative = cytotoxicity did NS(=O)(=O)c1cc2c(cc1Cl)NC(CC1CCCC1)NS2(=O)=O (stereo not drawn) show?
Return: inactive

Enquiry: Bench note: what activity change, negative = cytotoxicity did `CCCCC/C=C/CC(=O)OC` show?
Return: inactive

Enquiry: Bench note: what activity change, negative = cytotoxicity did `CC(C)COC(=O)COc1ccc(Cl)cc1Cl` show?
Return: inactive

---

# assay_summary: qHTS assay to identify small molecule antagonists of the estrogen receptor alpha (ER-alpha) signaling pathway using the BG1 cell line (AID 743080);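 further: BG1 cells stimulated with 17beta-estradiol alongside compound; on the % scale 0 is the no-effect control and ±100 the full control effect; nearly all actives have a fitted effect of over 25% in size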
# test_conditions: BG1Luc4E2 ERE-luciferase antagonist mode, luminescence; series mostly up to 70.3 µM
Inconclusive results are not listed. Active and inactive are the calls of the source. The call rests on the fitted dose curve.
property_name: outcome

Field: example entries. Status: answers known.
molecule	outcome
Cc1ccccc1C	inactive
CC1=CC[C@H](CC=O)C1(C)C	inactive
CC(CC(=O)O)CC(C)(C)C (configuration not stated)	inactive
OC[C@@H](O)[C@H](O)[C@@H](O)[C@@H](O)CO	inactive
O=C(O)CCNC(=O)c1ccccc1	inactive

Enquiry: Bench note: what outcome did `CCCCOC(=O)[C@@H](C)Oc1ccc(Oc2ccc(C(F)(F)F)cn2)cc1` show?
Return: inactive

Enquiry: Bench note: what outcome did CC1CCC(C(C)(C)S)C(=O)C1 (configuration not stated) show?
Return: inactive

---

# assay_summary: qHTS assay to test for compound auto fluorescence at 535 nm (green) in HEK293 cells (AID 720680); further: on the % scale 0 is the no-effect control and ±100 the full control effect
# test_conditions: green autofluorescence 485/535 nm; series mostly up to 91.3 µM
Active and inactive are the calls of the source. Calls follow the shape of the dose curve; as a rule, active = well fitted curve in the direction sought with a large enough effect in the repeat runs; inconclusive = weak or mixed curves; inactive = flat fitted curve, though single readings scatter.
property_name: fluorescence, % of fluorescein

Field: example entries. Status: answers known.
compound	fluorescence, % of fluorescein
CC(=O)c1ccc(OCC(=O)N2CCCCC2)cc1	inactive
COc1ccc(OC)c(NC(=O)CC(C)=O)c1	inactive
CC(C)CCO	inactive
CC(=O)/C=C/c1ccco1	inactive
CC(C)=CC(C)(C)C	inactive

Enquiry: Bench note: what fluorescence, % of fluorescein did `COCCOCCOCCOC` show?
Return: inactive

---

# assay_summary: qHTS assay to test for compound auto fluorescence at 460 nm (blue) in HepG2 cells (AID 720687); further: on the % scale 0 is the no-effect control and ±100 the full control effect
# test_conditions: autofluorescence 405/460 nm, 1 h; series mostly up to 91.3 µM
Activity calls are given as the source filed them. Calls follow the shape of the dose curve; as a rule, active = well fitted curve in the direction sought with a large enough effect in the repeat runs; inconclusive = weak or mixed curves; inactive = flat fitted curve, though single readings scatter.
property_name: fluorescence, % of fluorescent control

Field: example entries. Status: answers known.
smiles_str	fluorescence, % of fluorescent control
O=S(=O)(O)SSS(=O)(=O)O	inactive
NC(=O)C1(N2CCCCC2)CCN(CCCC(=O)c2ccc(F)cc2)CC1	inactive
c1ccc(CNc2ncnc3nc[nH]c23)cc1	inactive
O=C(O)CCNC(=O)c1ccccc1	inactive
COc1cc2c3cc1Oc1cc(ccc1O)C[C@@H]1c4c(cc(OC)c(O)c4Oc4ccc(cc4)C[C@@H]3N(C)CC2)CC[N+]1(C)C	inactive

Below: the item to evaluate.
Enquiry: Bench note: what fluorescence, % of fluorescent control did `CCCCCCCCC(=O)OCC` show?
Return: inactive

---

# experimental_target: Luciferin 4-monooxygenase (Photinus pyralis)
# assay_summary: qHTS assay to identify small molecule inhibitors of firefly luciferase (AID 1224835); further: nearly all actives have a fitted effect of over 25% in size
# test_conditions: purified P. pyralis luciferase, luminescence inhibition; series mostly up to 115 µM
Records with an inconclusive call do not appear. The source made the active and inactive calls. Calls follow the shape of the dose curve; as a rule, active = well fitted inhibition curve with a large enough effect in the repeat runs; inconclusive = weak or mixed curves; inactive = flat fitted curve, though single readings scatter.
Hi there, use one of these labels in your reply, thanks! T for active, F for inactive

Enquiry: # outcome recorded in this test, key = `CCN(CCC#N)c1ccccc1`
Return: F

Enquiry: # outcome recorded in this test, key = `O=S(=O)(O)c1cc(O)ccc1O`
Return: F

Enquiry: # outcome recorded in this test, key = CCCCCC1Nc2cc(C(F)(F)F)c(S(N)(=O)=O)cc2S(=O)(=O)N1 (configuration not stated)
Return: F

Enquiry: # outcome recorded in this test, key = CC(C)COC(=O)CC(C(=O)OCC(C)C)S(=O)(=O)O (configuration not stated)
Return: F

Enquiry: # outcome recorded in this test, key = `F[Si-2](F)(F)(F)(F)F`
Return: F

Enquiry: # outcome recorded in this test, key = `CC(C)c1ccccc1O`
Return: F

Enquiry: # outcome recorded in this test, key = C=C(C)C(=O)OC1CC(C)CC(C)(C)C1 (configuration not stated)
Return: F

Enquiry: # outcome recorded in this test, key = `Nc1cc(Cl)cc(S(=O)(=O)O)c1O`
Return: F

Enquiry: # outcome recorded in this test, key = `CCCO`
Return: F

Enquiry: # outcome recorded in this test, key = CC(Cl)COP(=O)(OCC(C)Cl)OCC(C)Cl (configuration not stated)
Return: F

Enquiry: # outcome recorded in this test, key = `CCOC(=O)CC(CC(=O)OCC)(OC(C)=O)C(=O)OCC`
Return: F

Enquiry: # outcome recorded in this test, key = `Cc1cccc(Nc2ccncc2S(=O)(=O)NC(=O)NC(C)C)c1`
Return: F

Enquiry: # outcome recorded in this test, key = `CNC(=O)C(c1ccccc1)c1ccccc1`
Return: F

Enquiry: # outcome recorded in this test, key = `CC(C)SCc1ccco1`
Return: F

Enquiry: # outcome recorded in this test, key = `NS(=O)(=O)c1ccc(Cl)c(S(N)(=O)=O)c1`
Return: F

Enquiry: # outcome recorded in this test, key = CCC1Nc2cc(Cl)c(S(N)(=O)=O)cc2S(=O)(=O)N1 (configuration not stated)
Return: F

Enquiry: # outcome recorded in this test, key = `Nc1ccnc(=O)[nH]1`
Return: F

Enquiry: # outcome recorded in this test, key = CC1=NN(c2ccc(S(=O)(=O)O)cc2)C(=O)C1N=Nc1ccccc1 (configuration not stated)
Return: T

Enquiry: # outcome recorded in this test, key = `COc1ccc(NS(=O)(=O)c2ccc(N)cc2)nn1`
Return: F

Enquiry: # outcome recorded in this test, key = `CC(C)(CO)[C@@H](O)C(=O)NCCCO`
Return: F

Enquiry: # outcome recorded in this test, key = `C=C[C@@H](C)CCC=C(C)C`
Return: F

Enquiry: # outcome recorded in this test, key = `COc1cc(C=O)ccc1OC(=O)C(C)C`
Return: F

Enquiry: # outcome recorded in this test, key = `Nc1ccc(S(=O)(=O)NC(=O)c2ccccc2)cc1`
Return: F

Enquiry: # outcome recorded in this test, key = `Cc1ccccc1C`
Return: F

Enquiry: # outcome recorded in this test, key = `CCCOC(=O)CCCCC(=O)OCCC`
Return: F

Enquiry: # outcome recorded in this test, key = `CC(=O)OC(C)(C)Cc1ccccc1`
Return: F

Enquiry: # outcome recorded in this test, key = `O=[Si]=O`
Return: F

Enquiry: # outcome recorded in this test, key = CCCCC(CC)C(=O)OC(C)C (configuration not stated)
Return: F

Enquiry: # outcome recorded in this test, key = `CCN1CN(CC)CN(CC)C1`
Return: F

Enquiry: # outcome recorded in this test, key = `CN(C)CCCNCCC#N`
Return: F

Enquiry: # outcome recorded in this test, key = `CCCCCCCCC(=O)OCC`
Return: F

Enquiry: # outcome recorded in this test, key = `C=CCOc1cc(Cl)ccc1C(=O)NCCN(CC)CC`
Return: F

Enquiry: # outcome recorded in this test, key = `CCC(CO)CO`
Return: F

Enquiry: # outcome recorded in this test, key = `COc1cc([N+](=O)[O-])ccc1N`
Return: F

Enquiry: # outcome recorded in this test, key = `CO[Si](CCCS)(OC)OC`
Return: F

Enquiry: # outcome recorded in this test, key = `O=C(O)/C=C/c1ccccc1`
Return: F

Enquiry: # outcome recorded in this test, key = O=P(O)(O)OCC(O)CO (configuration not stated)
Return: F

Enquiry: # outcome recorded in this test, key = C1=CCC(c2ccccc2)CC1 (configuration not stated)
Return: F

Enquiry: # outcome recorded in this test, key = `C[C@H]1O[C@H](O[C@H]2[C@H](O)[C@@H](O)[C@@H](O[C@H]3[C@H](O)[C@@H](O)[C@H](O)O[C@@H]3CO)O[C@@H]2CO)[C@H](O)[C@@H](O)[C@@H]1N[C@H]1C=C(CO)[C@@H](O)[C@H](O)[C@H]1O`
Return: F

Enquiry: # outcome recorded in this test, key = Cc1ncc([N+](=O)[O-])n1CC(O)CCl (configuration not stated)
Return: F

Enquiry: # outcome recorded in this test, key = CCCC(C)CC (configuration not stated)
Return: F

Enquiry: # outcome recorded in this test, key = `C=CCOCC(CO)(COCC=C)COCC=C`
Return: F

Enquiry: # outcome recorded in this test, key = `O=C(O)c1ccccc1C(=O)Nc1ccc(S(=O)(=O)Nc2nccs2)cc1`
Return: F

Enquiry: # outcome recorded in this test, key = `O=C(O)c1ccc(OCCN2CCCCC2)cc1`
Return: F

Enquiry: # outcome recorded in this test, key = CCC(C)N (configuration not stated)
Return: F

Enquiry: # outcome recorded in this test, key = `CC(C)=CC(C)(C)C`
Return: F

Enquiry: # outcome recorded in this test, key = NS(=O)(=O)c1cc2c(cc1Cl)NC(CC1CCCC1)NS2(=O)=O (configuration not stated)
Return: F

Enquiry: # outcome recorded in this test, key = `CCS(=O)(=O)CCn1c([N+](=O)[O-])cnc1C`
Return: F

Enquiry: # outcome recorded in this test, key = `Cc1nc(C)nc(N2C[C@@H](C)N(c3ccnc([C@@H](C)O)n3)[C@@H](C)C2)n1`
Return: F

Enquiry: # outcome recorded in this test, key = `CCOC(=O)C(=O)c1csc(NC=O)n1`
Return: F

Enquiry: # outcome recorded in this test, key = `CCOC(=O)CCCCCCCCC(=O)OCC`
Return: F

Enquiry: # outcome recorded in this test, key = `CNCc1ccccc1`
Return: F

Enquiry: # outcome recorded in this test, key = `CN[C@@H]1[C@H](O)[C@H](NC)[C@H]2O[C@@]3(O)C(=O)C[C@@H](C)O[C@H]3O[C@@H]2[C@H]1O`
Return: F

Enquiry: # outcome recorded in this test, key = `O=S(=O)(O)CCO`
Return: F

Enquiry: # outcome recorded in this test, key = CCCCCN(CCCOC)C(=O)C(CCC(=O)O)NC(=O)c1ccc(Cl)c(Cl)c1 (configuration not stated)
Return: F

Enquiry: # outcome recorded in this test, key = `CC(=O)/C=C/c1ccco1`
Return: F

Enquiry: # outcome recorded in this test, key = `CC(C)C(=O)c1ccccc1`
Return: F
